Test system: HOP-62 NSCLC
Experiment: NCI-60 one-dose screen, 48 h (100 = growth as untreated, 0 = no growth, -100 = all killed)
Settings: 10 µM unless noted
Compounds without any hit were thinned out: in the full panel of roughly 83,000, 20% have a hit.
Answer each item with its documented growth.
Give bare numbers, in %.

Recorded growth, per entry:
molecule | growth (%)
C=C1CC[C@@H]2[C@](C)(CO)[C@H](O)CC[C@@]2(C)[C@@H]1C/C(O)=C1\CCOC1=O | 102
CC(=O)c1ccc(Nc2nc(SCC(C)C)nc(-c3ccc(F)cc3)c2C#N)cc1 | 116
COc1ccc(NC2=C(Cl)C(=O)c3nc(C)ccc3C2=O)cc1OC | 110

// each listed molecule needs a value for growth
1. NC(N)=Nc1ccc(Oc2ccc(Nc3ccc(Cl)c(C(F)(F)F)c3)cc2)cc1
2. O=C1CCCc2nc(Nc3ccc(S(=O)(=O)Nc4ccc([N+](=O)[O-])cc4)cc3)ncc21
3. CCCCCc1ccc(S(=O)(=O)Nc2cccc(-c3csc(NCCN4CCN(C)CC4)n3)c2)cc1
4. COc1c(N2CC3CCCNC3C2)c(F)cc2c(=O)c(C(=O)N/N=C/c3ccccc3)cn(C3CC3)c12 (centres undefined)
5. COc1ccc(Cn2cc3c(c2-c2cc(OC)c(OC)c(OC)c2)CCc2c(CN4CCOCC4)noc2-3)cc1

Result block:
76.4
111
89.4
96.6
45

// each listed molecule needs a value for growth
1. C[C@H](CCC(=O)NCc1ccc(C(=O)Nc2ccccc2N)cc1)[C@H]1CC[C@H]2[C@@H]3[C@@H](O)C[C@@H]4C[C@H](O)CC[C@]4(C)[C@H]3CC[C@]12C
2. Cc1cccc2c3c(sc12)C(c1ccc(Cl)cc1)c1c(nc(CC(=O)Nc2ccccc2)[nH]c1=O)O3 (centres undefined)

Result block:
1: 58.3; 2: 59.8

// each listed molecule needs a value for growth
1. NS(=O)(=O)c1ccc(-n2cc(CN3CCNCC3)nn2)cc1
2. NC(=O)c1cccc(C#CCNC[C@H]2C[C@@H](n3ccc4c(Cl)ncnc43)[C@H](O)[C@@H]2O)c1
3. Nc1nc(-c2cccc([N+](=O)[O-])c2)c(N=Nc2ccccc2)s1
4. NS(=O)(=O)c1ccc(Nc2nc(SCc3ccccc3)nc3ccccc23)cc1
5. O=C(CN1CCN(c2cc(=O)[nH]c3ccc(F)cc23)CC1)Nc1ccc(Cl)cc1
6. COc1ccc2[nH]cc(/C=N/Nc3nc4ccccc4s3)c2c1
7. C=CCn1c(SCC(=O)Nc2ccc(C(=O)/C=C/c3ccc(Br)cc3)cc2)nnc1-c1c[nH]c2ccccc12

Result block:
1. 102
2. 106
3. 80.6
4. 86.2
5. 43.9
6. 62.9
7. 92.7

// each listed molecule needs a value for growth
1. CC(C)(C)c1ccc(C(=O)Nc2nc3ccc(O)cc3s2)cc1
2. C=CCN(C)S(=O)(=O)/N=C1\NC(=O)NC1=C(Cl)Cl

Result block:
1. 82.9
2. 76.5
